The reader will find reported SI K103N values listed item by item below.
- Tested on: HIV-1 K103N mutant strain
- RUN_DESCRIPTION: microbe, parasite or virus in culture
- Format: cell-based
- TEST_CONDITIONS: ratio CC50/EC50, K103N
TEST_READOUT: SI K103N

| SMILES_STRING | ASSAY_RESULT |
| --- | --- |
| Cc1cc(C#N)cc(C)c1Oc1nc(Nc2ccc(B3OC(C)(C)C(C)(C)O3)cc2)nc2c1COC2 | 792 |
| Cc1cc(/C=C/C#N)cc(C)c1Oc1nc(Nc2ccc(B3OC(C)(C)C(C)(C)O3)cc2)nc2ccsc12 | > 47,170 |
| Cc1cc(/C=C/C#N)cc(C)c1Oc1nc(Nc2ccc(B3OC(C)(C)C(C)(C)O3)cc2)nc2sccc12 | 2866 |
| Cc1cc(/C=C/C#N)cc(C)c1Oc1nc(Nc2ccc(B3OC(C)(C)C(C)(C)O3)cc2)nc2c1COC2 | 3110 |

----------
- RUN_DESCRIPTION: Cytotoxicity in mock-infected MT-4 cells, MTT method
- Format: cell-based
- TEST_CONDITIONS: human
The reader will find reported CC50 at 5 days values listed item by item below.

| COMPOUND | LT_GT_EQ | CC50 at 5 days (µM) |
| --- | --- | --- |
| Cc1cc(C#N)cc(C)c1Oc1nc(Nc2ccc(B3OC(C)(C)C(C)(C)O3)cc2)nc2scnc12 [Compound 3e] | = | 26.5 |
| Cc1cc(/C=C/C#N)cc(C)c1Oc1nc(Nc2ccc(B3OC(C)(C)C(C)(C)O3)cc2)nc2sccc12 [Compound 4b] | = | 22.1 |
| Cc1cc(C#N)cc(C)c1Oc1nc(Nc2ccc(B3OC(C)(C)C(C)(C)O3)cc2)nc2cccnc12 [Compound 3h] | = | 26 |
| Cc1cc(C#N)cc(C)c1Oc1nc(Nc2ccc(B3OC(C)(C)C(C)(C)O3)cc2)nc2ccsc12 [Compound 3a] | = | 27.4 |
| Cc1cc(/C=C/C#N)cc(C)c1Oc1nc(Nc2ccc(B3OC(C)(C)C(C)(C)O3)cc2)nc2c1COC2 [Compound 4c] | = | 80.3 |
| Cc1cc(C#N)cc(C)c1Oc1nc(Nc2ccc(B3OC(C)(C)C(C)(C)O3)cc2)nc2ccccc12 [Compound 3g] | > | 254 |
| Cc1cc(C#N)cc(C)c1Oc1ccnc(Nc2ccc(B3OC(C)(C)C(C)(C)O3)cc2)n1 [Compound 3f] | = | 30.6 |
| Cc1cc(/C=C/C#N)cc(C)c1Oc1nc(Nc2ccc(B3OC(C)(C)C(C)(C)O3)cc2)nc2ccsc12 [Compound 4a] | > | 238 |
| Cc1cc(C#N)cc(C)c1Oc1nc(Nc2ccc(B3OC(C)(C)C(C)(C)O3)cc2)nc2c1CCCC2 [Compound 3i] | = | 27.7 |
| Cc1cc(C#N)cc(C)c1Oc1nc(Nc2ccc(B3OC(C)(C)C(C)(C)O3)cc2)nc2c1SCCC2 [Compound 3j] | = | 25.9 |
| Cc1cc(C#N)cc(C)c1Oc1nc(Nc2ccc(B3OC(C)(C)C(C)(C)O3)cc2)nc2sccc12 [Compound 3b] | > | 254 |
| Cc1cc(C#N)cc(C)c1Oc1nc(Nc2ccc(B3OC(C)(C)C(C)(C)O3)cc2)nc2ncsc12 [Compound 3d] | = | 24.1 |
| Cc1cc(C#N)cc(C)c1Oc1nc(Nc2ccc(B3OC(C)(C)C(C)(C)O3)cc2)nc2c1COC2 [Compound 3c] | = | 94.8 |
| Cc1cc(C#N)cc(C)c1Oc1nc(Nc2ccc(C#N)cc2)nc(N)c1Br [ETR, etravirine, reference compound] | > | 4.6 |

----------
- Tested on: HIV-1 Y181C mutant strain
- RUN_DESCRIPTION: microbe, parasite or virus in culture
- Format: cell-based
- TEST_CONDITIONS: ratio EC50 (resistant viral strain)/EC50 (wild-type viral strain), Y181C
Threshold 70: RF Y181C strictly smaller gives fulfilled, otherwise not fulfilled.

| COMPOUND | CLASSIFICATION |
| --- | --- |
| Cc1cc(/C=C/C#N)cc(C)c1Oc1nc(Nc2ccc(B3OC(C)(C)C(C)(C)O3)cc2)nc2c1COC2 [Compound 4c] | not fulfilled |
| Cc1ccnc2c1NC(=O)c1cccnc1N2C1CC1 [NVP, nevirapine, reference compound] | fulfilled |
| Cc1cc(/C=C/C#N)cc(C)c1Oc1nc(Nc2ccc(B3OC(C)(C)C(C)(C)O3)cc2)nc2sccc12 [Compound 4b] | fulfilled |
| Cc1cc(/C=C/C#N)cc(C)c1Oc1nc(Nc2ccc(B3OC(C)(C)C(C)(C)O3)cc2)nc2ccsc12 [Compound 4a] | not fulfilled |
| Cc1cc(C#N)cc(C)c1Oc1nc(Nc2ccc(B3OC(C)(C)C(C)(C)O3)cc2)nc2ccsc12 [Compound 3a] | not fulfilled |
| Cc1cc(C#N)cc(C)c1Oc1nc(Nc2ccc(B3OC(C)(C)C(C)(C)O3)cc2)nc2c1COC2 [Compound 3c] | not fulfilled |

----------
- Tested on: HIV-1 Y188L mutant strain
- RUN_DESCRIPTION: microbe, parasite or virus in culture
- Type: cell-based
- TEST_CONDITIONS: ratio EC50 (resistant viral strain)/EC50 (wild-type viral strain), Y188L
The reader will find reported RF Y188L values listed item by item below.
TEST_READOUT: RF Y188L

| MOLECULE | TEST_READOUT | ASSAY_RESULT |
| --- | --- | --- |
| Cc1cc(C#N)cc(C)c1Oc1nc(Nc2ccc(B3OC(C)(C)C(C)(C)O3)cc2)nc2ccsc12 | RF Y188L | 94.7 |
| Cc1cc(/C=C/C#N)cc(C)c1Oc1nc(Nc2ccc(B3OC(C)(C)C(C)(C)O3)cc2)nc2sccc12 | RF Y188L | 246.1 |
| Cc1ccnc2c1NC(=O)c1cccnc1N2C1CC1 [NVP, nevirapine, reference compound] | RF Y188L | 60.4 |
| Cc1cc(C#N)cc(C)c1Oc1nc(Nc2ccc(B3OC(C)(C)C(C)(C)O3)cc2)nc2c1COC2 | RF Y188L | 87.9 |
| Cc1cc(/C=C/C#N)cc(C)c1Oc1nc(Nc2ccc(B3OC(C)(C)C(C)(C)O3)cc2)nc2c1COC2 | RF Y188L | 290.3 |

----------
TEST_READOUT: melting point

| SMILES_STRING | ASSAY_RESULT |
| --- | --- |
| Cc1cc(C#N)cc(C)c1Oc1nc(Nc2ccc(B3OC(C)(C)C(C)(C)O3)cc2)nc2ncsc12 | 117 to 119 °C |
| Cc1cc(C#N)cc(C)c1Oc1nc(Nc2ccc(B3OC(C)(C)C(C)(C)O3)cc2)nc2c1CCCC2 | 233 to 235 °C |
| Cc1cc(C#N)cc(C)c1Oc1ccnc(Nc2ccc(B3OC(C)(C)C(C)(C)O3)cc2)n1 | 202 to 204 °C |
| Cc1cc(C#N)cc(C)c1Oc1nc(Nc2ccc(B3OC(C)(C)C(C)(C)O3)cc2)nc2cccnc12 | 177 to 179 °C |
| Cc1cc(C#N)cc(C)c1Oc1nc(Nc2ccc(B3OC(C)(C)C(C)(C)O3)cc2)nc2c1COC2 | 149 to 151 °C |
| Cc1cc(/C=C/C#N)cc(C)c1Oc1nc(Nc2ccc(B3OC(C)(C)C(C)(C)O3)cc2)nc2c1COC2 | 134 to 136 °C |
| Cc1cc(C#N)cc(C)c1Oc1nc(Nc2ccc(B3OC(C)(C)C(C)(C)O3)cc2)nc2c1SCCC2 | 201 to 203 °C |
| Cc1cc(C#N)cc(C)c1Oc1nc(Nc2ccc(B3OC(C)(C)C(C)(C)O3)cc2)nc2ccccc12 | 147 to 149 °C |

----------
- Tested on: HIV-1 Y181C mutant strain
- RUN_DESCRIPTION: microbe, parasite or virus in culture
- Assay type: cell-based
- TEST_CONDITIONS: ratio CC50/EC50, Y181C
The reader will find reported SI Y181C values listed item by item below.

| SMILES_STRING | LT_GT_EQ | SI Y181C |
| --- | --- | --- |
| Cc1cc(C#N)cc(C)c1Oc1nc(Nc2ccc(B3OC(C)(C)C(C)(C)O3)cc2)nc2c1COC2 | = | 22 |
| Cc1cc(/C=C/C#N)cc(C)c1Oc1nc(Nc2ccc(B3OC(C)(C)C(C)(C)O3)cc2)nc2sccc12 | = | 33 |
| Cc1cc(/C=C/C#N)cc(C)c1Oc1nc(Nc2ccc(B3OC(C)(C)C(C)(C)O3)cc2)nc2ccsc12 | > | 368 |
| Cc1cc(/C=C/C#N)cc(C)c1Oc1nc(Nc2ccc(B3OC(C)(C)C(C)(C)O3)cc2)nc2c1COC2 | = | 63 |

Where do these numbers come from? They come from paper PMC9657321.
